Target: Transcriptional coactivator YAP1/Transcriptional enhancer factor TEF-1 (Homo sapiens, UniProt P28347)
Sequence (P46937 whole entry): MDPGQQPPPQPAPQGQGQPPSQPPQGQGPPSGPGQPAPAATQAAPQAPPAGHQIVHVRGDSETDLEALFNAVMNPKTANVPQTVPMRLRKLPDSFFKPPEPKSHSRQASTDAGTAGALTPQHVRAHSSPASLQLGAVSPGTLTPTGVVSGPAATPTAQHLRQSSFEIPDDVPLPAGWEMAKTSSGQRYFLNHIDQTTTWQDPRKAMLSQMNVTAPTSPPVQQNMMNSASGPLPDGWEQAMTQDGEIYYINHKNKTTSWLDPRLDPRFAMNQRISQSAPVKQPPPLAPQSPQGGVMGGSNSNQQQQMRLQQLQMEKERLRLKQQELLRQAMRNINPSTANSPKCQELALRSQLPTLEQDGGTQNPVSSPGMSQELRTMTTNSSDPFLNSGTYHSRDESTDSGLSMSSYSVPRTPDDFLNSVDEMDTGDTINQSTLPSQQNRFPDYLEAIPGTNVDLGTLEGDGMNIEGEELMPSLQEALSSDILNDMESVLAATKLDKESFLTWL
Sequence (P28347 whole entry): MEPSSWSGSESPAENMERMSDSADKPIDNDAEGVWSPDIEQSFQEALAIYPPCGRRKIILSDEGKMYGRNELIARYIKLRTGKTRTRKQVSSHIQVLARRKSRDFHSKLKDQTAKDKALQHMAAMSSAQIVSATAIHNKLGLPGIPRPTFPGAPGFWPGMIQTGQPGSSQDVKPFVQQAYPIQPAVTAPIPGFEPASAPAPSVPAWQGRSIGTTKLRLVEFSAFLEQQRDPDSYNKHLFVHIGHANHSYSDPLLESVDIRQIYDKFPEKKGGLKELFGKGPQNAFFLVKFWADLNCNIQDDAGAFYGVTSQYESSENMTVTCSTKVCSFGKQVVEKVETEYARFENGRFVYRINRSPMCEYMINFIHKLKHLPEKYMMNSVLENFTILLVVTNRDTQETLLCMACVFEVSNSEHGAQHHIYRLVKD
Assay: Inhibition of YAP/ GST-TEAD1 (unknown origin) interaction by surface plasmon resonance assay
Assay type: protein assay
Where a SMILES comes first, the peptide text is derived from it. Bridges are numbered along the chain shown (N, C = ends).

{"columns": ["COMPOUND", "IC50"],
 "data": [
  ["CSCC[C@H](NC(=O)[C@@H]1CCCN1C(=O)[C@@H](NC(C)=O)C(C)C)C(=O)N[C@H]1CSSC[C@@H](C(=O)N[C@@H](CCCCN)C(=O)N2CCC[C@H]2C(=O)N2CCC[C@H]2C(=O)N[C@@H](CCC(=O)O)C(N)=O)NC(=O)[C@H](Cc2ccccc2)NC(=O)[C@H](CO)NC(=O)[C@H](CC(=O)O)NC(=O)[C@@H]2CCCN2C(=O)[C@H](CC(C)C)NC(=O)[C@H](CCCCN)NC(=O)[C@H](CCCNC(=N)N)NC(=O)[C@H](CC(C)C)NC1=O (Ac-VPMCLRKLPDSFCKPPE-NH2; disulfide 4-13)", "> 100 µM"]
]}

* * *

Molecular target: Transcriptional coactivator YAP1/Transcriptional enhancer factor TEF-1 (Homo sapiens) (UniProt P46937+P28347)
Sequence (P28347 whole entry, looked up): as the sequence (P28347 whole entry) above
Sequence (P46937 whole entry, looked up): as the sequence (P46937 whole entry) above
Assay: Inhibition of YAP/ GST-TEAD1 (unknown origin) interaction at 50 uM by surface plasmon resonance assay
Type: protein assay
Where a SMILES comes first, the peptide text is derived from it.

{"columns": ["COMPOUND", "inhibition"],
 "data": [
  ["CSCC[C@H](NC(=O)[C@@H]1CCCN1C(=O)[C@@H](NC(=O)[C@@H](NC(=O)[C@H](CCC(N)=O)NC(=O)[C@@H]1CCCN1C(C)=O)[C@@H](C)O)C(C)C)C(=O)N[C@@H](CCCNC(=N)N)C(=O)N[C@@H](CC(C)C)C(=O)N[C@@H](CCCNC(=N)N)C(=O)N[C@@H](CCCCN)C(=O)N[C@@H](CC(C)C)C(=O)N1CCC[C@H]1C(=O)N[C@@H](CC(=O)O)C(=O)N[C@@H](CO)C(=O)N[C@@H](Cc1ccccc1)C(=O)N[C@@H](Cc1ccccc1)C(=O)N[C@@H](CCCCN)C(N)=O (Ac-PQTVPMRLRKLPDSFFK-NH2)", "14%"],
  ["CSCC[C@H](NC(=O)[C@@H]1CCCN1C(=O)[C@@H](NC(=O)[C@@H](NC(=O)[C@H](CCC(N)=O)NC(C)=O)[C@@H](C)O)C(C)C)C(=O)N[C@@H](CCCNC(=N)N)C(=O)N[C@@H](CC(C)C)C(=O)N[C@@H](CCCNC(=N)N)C(=O)N[C@@H](CCCCN)C(=O)N[C@@H](CC(C)C)C(=O)N1CCC[C@H]1C(=O)N[C@@H](CC(=O)O)C(=O)N[C@@H](CO)C(=O)N[C@@H](Cc1ccccc1)C(=O)N[C@@H](Cc1ccccc1)C(=O)N[C@@H](CCCCN)C(=O)N1CCC[C@H]1C(=O)N1CCC[C@H]1C(=O)N[C@@H](CCC(=O)O)C(N)=O", "59%"],
  ["CSCC[C@H](NC(C)=O)C(=O)N[C@@H](CCCNC(=N)N)C(=O)N[C@@H](CC(C)C)C(=O)N[C@@H](CCCNC(=N)N)C(=O)N[C@@H](CCCCN)C(=O)N[C@@H](CC(C)C)C(=O)N1CCC[C@H]1C(=O)N[C@@H](CC(=O)O)C(=O)N[C@@H](CO)C(=O)N[C@@H](Cc1ccccc1)C(=O)N[C@@H](Cc1ccccc1)C(=O)N[C@@H](CCCCN)C(=O)N1CCC[C@H]1C(=O)N1CCC[C@H]1C(=O)N[C@@H](CCC(=O)O)C(N)=O (Ac-MRLRKLPDSFFKPPE-NH2)", "12%"],
  ["CSCC[C@H](NC(=O)[C@@H]1CCCN1C(=O)[C@@H](NC(=O)[C@@H](NC(=O)[C@H](CCC(N)=O)NC(=O)[C@@H]1CCCN1C(C)=O)[C@@H](C)O)C(C)C)C(=O)N[C@@H](CCCNC(=N)N)C(=O)N[C@@H](CC(C)C)C(=O)N[C@@H](CCCNC(=N)N)C(=O)N[C@@H](CCCCN)C(=O)N[C@@H](CC(C)C)C(=O)N1CCC[C@H]1C(=O)N[C@@H](CC(=O)O)C(=O)N[C@@H](CO)C(=O)N[C@@H](Cc1ccccc1)C(=O)N[C@@H](Cc1ccccc1)C(N)=O (Ac-PQTVPMRLRKLPDSFF-NH2)", "13%"]
]}

* * *

Items are presented alongside their recorded inhibition.
Target: Transcriptional coactivator YAP1/Transcriptional enhancer factor TEF-1 (Homo sapiens) (UniProt P46937+P28347)
Assay: Inhibition of YAP/ GST-TEAD1 (unknown origin) interaction at 50 uM by surface plasmon resonance assay
Type: protein assay
Where a SMILES comes first, the peptide text is derived from it.

{"columns": ["MOLECULE", "inhibition, %"],
 "data": [
  ["CSCC[C@H](NC(=O)[C@@H]1CCCN1C(=O)[C@@H](NC(=O)[C@@H](NC(C)=O)[C@@H](C)O)C(C)C)C(=O)N[C@@H](CCCNC(=N)N)C(=O)N[C@@H](CC(C)C)C(=O)N[C@@H](CCCNC(=N)N)C(=O)N[C@@H](CCCCN)C(=O)N[C@@H](CC(C)C)C(=O)N1CCC[C@H]1C(=O)N[C@@H](CC(=O)O)C(=O)N[C@@H](CO)C(=O)N[C@@H](Cc1ccccc1)C(=O)N[C@@H](Cc1ccccc1)C(=O)N[C@@H](CCCCN)C(=O)N1CCC[C@H]1C(=O)N1CCC[C@H]1C(=O)N[C@@H](CCC(=O)O)C(N)=O", 60],
  ["CC(=O)N[C@@H](CCCNC(=N)N)C(=O)N[C@@H](CC(C)C)C(=O)N[C@@H](CCCNC(=N)N)C(=O)N[C@@H](CCCCN)C(=O)N[C@@H](CC(C)C)C(=O)N1CCC[C@H]1C(=O)N[C@@H](CC(=O)O)C(=O)N[C@@H](CO)C(=O)N[C@@H](Cc1ccccc1)C(=O)N[C@@H](Cc1ccccc1)C(=O)N[C@@H](CCCCN)C(=O)N1CCC[C@H]1C(=O)N1CCC[C@H]1C(=O)N[C@@H](CCC(=O)O)C(N)=O (Ac-RLRKLPDSFFKPPE-NH2)", 12]
]}

* * *

Biological target: Transcriptional coactivator YAP1/Transcriptional enhancer factor TEF-1 (Homo sapiens)
Test: Inhibition of YAP/ GST-TEAD1 (unknown origin) interaction by surface plasmon resonance assay
Where a SMILES comes first, the peptide text is derived from it. Bridges are numbered along the chain shown (N, C = ends). [ ]: non-standard residue; d: D form. hCys = N[C@@H](CCS)C(=O)O
OBSERVABLE: IC50 (nM)

{"columns": ["COMPOUND", "TESTED SYSTEM", "MEASUREMENT QUALIFIER", "NUMERIC READOUT"],
 "data": [
  ["CSCC[C@H](NC(=O)[C@@H]1CCCN1C(=O)[C@@H](NC(C)=O)C(C)C)C(=O)N[C@H]1CCSSCC[C@@H](C(=O)N[C@@H](CCCCN)C(=O)N2CCC[C@H]2C(=O)N2CCC[C@H]2C(=O)N[C@@H](CCC(=O)O)C(N)=O)NC(=O)[C@H](Cc2ccccc2)NC(=O)[C@H](CO)NC(=O)[C@H](CC(=O)O)NC(=O)[C@@H]2CCCN2C(=O)[C@H](CC(C)C)NC(=O)[C@H](CCCCN)NC(=O)[C@H](CCCNC(=N)N)NC(=O)[C@H](CC(C)C)NC1=O (Ac-VPM[hCys]LRKLPDSF[hCys]KPPE-NH2; disulfide 4-13)", "Transcriptional coactivator YAP1/Transcriptional enhancer factor TEF-1 (Homo sapiens)", ">", 100000],
  ["CCCC[C@@H]1NC(=O)[C@H](CCCCN)NC(=O)[C@H](CCCNC(=N)N)NC(=O)[C@H](CC(C)C)NC(=O)[C@@H](NC(=O)[C@H](Cc2ccccc2)NC(=O)[C@@H]2CCCN2C(=O)[C@@H](NC(C)=O)C(C)C)CCSSC[C@@H](C(=O)N[C@@H](CCCCN)C(=O)N2CCC[C@H]2C(=O)N2CCC[C@H]2C(=O)N[C@@H](CCC(=O)O)C(N)=O)NC(=O)[C@H](Cc2ccccc2)NC(=O)[C@H](CO)NC(=O)[C@H](C)NC(=O)[C@@H]2CCCN2C1=O", "Transcriptional coactivator YAP1/Transcriptional enhancer factor TEF-1 (Homo sapiens)", "=", 350]
]}

* * *

Items are presented alongside their recorded log10(IC50).
Target: Transcriptional coactivator YAP1/Transcriptional enhancer factor TEF-1 (Homo sapiens, UniProt P28347)
Test: Inhibition of YAP/ GST-TEAD1 (unknown origin) interaction by surface plasmon resonance assay
Format: protein assay
Where a SMILES comes first, the peptide text is derived from it. Bridges are numbered along the chain shown (N, C = ends). [ ]: non-standard residue; d: D form. hCys = N[C@@H](CCS)C(=O)O; Nle = CCCC[C@H](N)C(=O)O
OBSERVABLE: log10(IC50) (log10 of the value in nM)

{"columns": ["COMPOUND", "NUMERIC READOUT"],
 "data": [
  ["CCCC[C@H](NC(=O)[C@@H]1CCCN1C(=O)[C@@H](NC(C)=O)C(C)C)C(=O)N[C@H]1CCSSC[C@@H](C(=O)N[C@@H](CCCCN)C(=O)N2CCC[C@H]2C(=O)N2CCC[C@H]2C(=O)N[C@@H](CCC(=O)O)C(N)=O)NC(=O)[C@H](Cc2ccccc2)NC(=O)[C@H](CO)NC(=O)[C@H](C)NC(=O)[C@@H]2CCCN2C(=O)[C@H](CCCC)NC(=O)[C@H](CCCCN)NC(=O)[C@H](CCCNC(=N)N)NC(=O)[C@H](CC(C)C)NC1=O", 2.53],
  ["CSCC[C@H](NC(=O)[C@@H]1CCCN1C(=O)[C@@H](NC(C)=O)C(C)C)C(=O)N[C@H]1CCSSC[C@@H](C(=O)N[C@@H](CCCCN)C(=O)N2CCC[C@H]2C(=O)N2CCC[C@H]2C(=O)N[C@@H](CCC(=O)O)C(N)=O)NC(=O)[C@H](Cc2ccccc2)NC(=O)[C@H](CO)NC(=O)[C@H](CC(=O)O)NC(=O)[C@@H]2CCCN2C(=O)[C@H](CC(C)C)NC(=O)[C@H](CCCCN)NC(=O)[C@H](CCCNC(=N)N)NC(=O)[C@H](CC(C)C)NC1=O", 3.84],
  ["CCCC[C@@H]1NC(=O)[C@H](CCCCN)NC(=O)[C@H](CCCNC(=N)N)NC(=O)[C@H](CC(C)C)NC(=O)[C@@H](NC(=O)[C@H](CCSC)NC(=O)[C@@H]2CCCN2C(=O)[C@@H](NC(C)=O)C(C)C)CCSSC[C@@H](C(=O)N[C@@H](CCCCN)C(=O)N2CCC[C@H]2C(=O)N2CCC[C@H]2C(=O)N[C@@H](CCC(=O)O)C(N)=O)NC(=O)[C@H](Cc2ccccc2)NC(=O)[C@H](CO)NC(=O)[C@H](CC(=O)O)NC(=O)[C@@H]2CCCN2C1=O (Ac-VPM[hCys]LRK[Nle]PDSFCKPPE-NH2; disulfide 4-13)", 3.23],
  ["CSCC[C@H](NC(=O)[C@@H]1CCCN1C(=O)[C@@H](NC(C)=O)C(C)C)C(=O)N[C@H]1CSSCC[C@@H](C(=O)N[C@@H](CCCCN)C(=O)N2CCC[C@H]2C(=O)N2CCC[C@H]2C(=O)N[C@@H](CCC(=O)O)C(N)=O)NC(=O)[C@H](Cc2ccccc2)NC(=O)[C@H](CO)NC(=O)[C@H](CC(=O)O)NC(=O)[C@@H]2CCCN2C(=O)[C@H](CC(C)C)NC(=O)[C@H](CCCCN)NC(=O)[C@H](CCCNC(=N)N)NC(=O)[C@H](CC(C)C)NC1=O (Ac-VPMCLRKLPDSF[hCys]KPPE-NH2; disulfide 4-13)", 4.93],
  ["CCCCC[C@@H]1NC(=O)[C@H](CCCCN)NC(=O)[C@H](CCCNC(=N)N)NC(=O)[C@H](CC(C)C)NC(=O)[C@@H](NC(=O)[C@H](CCSC)NC(=O)[C@@H]2CCCN2C(=O)[C@@H](NC(C)=O)C(C)C)CCSSC[C@@H](C(=O)N[C@@H](CCCCN)C(=O)N2CCC[C@H]2C(=O)N2CCC[C@H]2C(=O)N[C@@H](CCC(=O)O)C(N)=O)NC(=O)[C@H](Cc2ccccc2)NC(=O)[C@H](CO)NC(=O)[C@H](C)NC(=O)[C@@H]2CCCN2C1=O", 1.62],
  ["CCCC[C@@H]1NC(=O)[C@H](CCCCN)NC(=O)[C@H](CCCNC(=N)N)NC(=O)[C@H](CC(C)C)NC(=O)[C@@H](NC(=O)[C@H](Cc2ccccc2Cl)NC(=O)[C@@H]2CCCN2C(=O)[C@@H](NC(C)=O)C(C)C)CCSSC[C@@H](C(=O)N[C@@H](CCCCN)C(=O)N2CCC[C@H]2C(=O)N2CCC[C@H]2C(=O)N[C@@H](CCC(=O)O)C(N)=O)NC(=O)[C@H](Cc2ccccc2)NC(=O)[C@H](CO)NC(=O)[C@H](C)NC(=O)[C@@H]2CCCN2C1=O", 2.58],
  ["CSCC[C@H](NC(=O)[C@@H]1CCCN1C(=O)[C@@H](NC(C)=O)C(C)C)C(=O)N[C@H]1CCSSC[C@@H](C(=O)N[C@@H](CCCCN)C(=O)N2CCC[C@H]2C(=O)N2CCC[C@H]2C(=O)N[C@@H](CCC(=O)O)C(N)=O)NC(=O)[C@H](Cc2ccccc2)NC(=O)[C@H](CO)NC(=O)[C@H](C)NC(=O)[C@@H]2CCCN2C(=O)[C@H](CCCC(C)C)NC(=O)[C@H](CCCCN)NC(=O)[C@H](CCCNC(=N)N)NC(=O)[C@H](CC(C)C)NC1=O", 2.49],
  ["CCCCC[C@H](NC(=O)[C@@H]1CCCN1C(=O)[C@@H](NC(C)=O)C(C)C)C(=O)N[C@H]1CCSSC[C@@H](C(=O)N[C@@H](CCCCN)C(=O)N2CCC[C@H]2C(=O)N2CCC[C@H]2C(=O)N[C@@H](CCC(=O)O)C(N)=O)NC(=O)[C@H](Cc2ccccc2)NC(=O)[C@H](CO)NC(=O)[C@H](C)NC(=O)[C@@H]2CCCN2C(=O)[C@H](CCCC)NC(=O)[C@H](CCCCN)NC(=O)[C@H](CCCNC(=N)N)NC(=O)[C@H](CC(C)C)NC1=O", 1.61],
  ["CCCC[C@@H]1NC(=O)[C@H](CCCCN)NC(=O)[C@H](CCCNC(=N)N)NC(=O)[C@H](CC(C)C)NC(=O)[C@@H](NC(=O)[C@H](Cc2cccc(Cl)c2)NC(=O)[C@@H]2CCCN2C(=O)[C@@H](NC(C)=O)C(C)C)CCSSC[C@@H](C(=O)N[C@@H](CCCCN)C(=O)N2CCC[C@H]2C(=O)N2CCC[C@H]2C(=O)N[C@@H](CCC(=O)O)C(N)=O)NC(=O)[C@H](Cc2ccccc2)NC(=O)[C@H](CO)NC(=O)[C@H](C)NC(=O)[C@@H]2CCCN2C1=O", 1.40]
]}
